// values below are reported Kd
- Tested Target: human carbonic anhydrase II (human, UniProt P00918 1-260)
- Experimental Details: SPR
Primed or numbered codes have the meaning given here. Where no end group is shown, it is not given here. [ ]: non-standard residue; d: D form. The star is where a group is joined. 4‑CBS″ = 4-carboxybenzylsulfonamide on the N-terminus, O=C(O)c1ccc(CS(=O)(=O)*)cc1; 4‑CBS = 4-carboxybenzylsulfonamide, O=C(O)c1ccc(CS(=O)(=O)*)cc1
Write the answer as a number in nM, unit excluded.

Worked examples, 2 binders total:
binder="{4‑CBS″}-[dD][dV][dD][dD][dY]-NH2 [4-CBS-dvddy]" measurement=82
binder="{4‑CBS}-[dD][dV][dD][dV][dL] [4-CBS-dvdvl]" measurement=82

Entry {4‑CBS″}-[dD][dV][dD][dE][dY]-NH2 [4-CBS-dvdey] , Kd reported as 63

Recorded result, {4‑CBS}-LKEYD [4-CBS-LKEYD] , Kd: 59

Please fill in: Kd reported for {4‑CBS″}-[dD][dV][dE][dV][dL]-NH2 [4-CBS-dvevl] = 82

binder {4‑CBS″}-[dD][dA][dD][dV][dL]-NH2 [4-CBS-dadvl] , Kd observed: 185
